Tested on: DU-145
Assay: Antiproliferative activity against human DU145 after 48 hrs by SRB assay
Format: functional, cell-based
Details: DU-145, 48 h
Measurement Label: IC50 (nM)
Output spec: scalar in nM, unitless text.

O=C1NCCN1c1ccc(S(=O)(=O)Nc2cccc(Cl)c2)cc1 = 230
Cc1cccc(NS(=O)(=O)c2ccc(N3CCNC3=O)cc2)c1 = 580
Cc1ccc(C)c(NS(=O)(=O)c2ccc(N3CCNC3=O)cc2)c1 = 1610
COc1cc(NS(=O)(=O)c2ccc(N3CCNC3=O)cc2)cc(OC)c1 = 700

Entry `O=C1NCCN1c1ccc(S(=O)(=O)Nc2ccc3[nH]ccc3c2)cc1` : reported IC50 = ?
1370

Entry `CCc1cccc(NS(=O)(=O)c2ccc(N3CCNC3=O)cc2)c1` : reported IC50 = ?
730

###

Entries and their measured IC50 follow.
Test system: L1210
Experiment: Antiproliferative activity against mouse L1210 after 48 hrs by SRB assay
Format: functional, cell-based
Details: L1210, 48 h
Output spec: scalar in nM, unitless text.

Answered cases to consult:
Cc1ccc(C)c(NS(=O)(=O)c2ccc(N3CCNC3=O)cc2)c1 = 81
COc1cc(NS(=O)(=O)c2ccc(N3CCNC3=O)cc2)cc(OC)c1 = 110

Entry `COc1cc(NS(=O)(=O)c2ccc(N3CCNC3=O)cc2)cc(OC)c1OC` : reported IC50 = ?
21

Entry `O=C1NCCN1c1ccc(S(=O)(=O)Nc2cccc(Br)c2)cc1` : reported IC50 = ?
99

###

Entries and their measured Activity follow.
Tested on: M21
Test: Cell cycle arrest in human M21 cells assessed as accumulation at S phase at 5 times IC50 after 24 hrs using propidium iodide staining by flow cytometric analysis (reference value: 30%)
Format: functional
Hey, just the number and the unit after it is fine.

Answered cases to consult:
COc1cccc(NS(=O)(=O)c2ccc(N3CCNC3=O)cc2)c1 = 29%
O=C1NCCN1c1ccc(S(=O)(=O)Nc2cccc(Cl)c2)cc1 = 33%
COc1cc(NS(=O)(=O)c2ccc(N3CCNC3=O)cc2)cc(OC)c1 = 28%
Cc1ccc(C)c(NS(=O)(=O)c2ccc(N3CCNC3=O)cc2)c1 = 20%
O=C1NCCN1c1ccc(S(=O)(=O)Nc2cccc(Br)c2)cc1 = 20%

Entry `Cc1cc(C)cc(NS(=O)(=O)c2ccc(N3CCNC3=O)cc2)c1` : reported Activity = ?
21%

Entry `Cc1cccc(NS(=O)(=O)c2ccc(N3CCNC3=O)cc2)c1` : reported Activity = ?
16%

Entry `O=C1NCCN1c1ccc(S(=O)(=O)Nc2ccc3[nH]ccc3c2)cc1` : reported Activity = ?
22%

Entry `COc1cc(NS(=O)(=O)c2ccc(N3CCNC3=O)cc2)cc(OC)c1OC` : reported Activity = ?
12%

Entry `CCc1cccc(NS(=O)(=O)c2ccc(N3CCNC3=O)cc2)c1` : reported Activity = ?
5%

Entry `COc1ccc(/C=C\c2cc(OC)c(OC)c(OC)c2)cc1O` : reported Activity = ?
0%

###

Assay: Antiproliferative activity against human multidrug-resistant CEM/VLB cells after 48 hrs by SRB assay
Format: functional
Measurement Label: log10 of IC50 (log10 of the value in nM)
Transform log10 | Measure IC50 | Unit nM

Answered cases to consult:
O=C1NCCN1c1ccc(S(=O)(=O)Nc2cccc(Br)c2)cc1 = 2.40
COc1cc(NS(=O)(=O)c2ccc(N3CCNC3=O)cc2)cc(OC)c1 = 3.00

Entry `O=C1NCCN1c1ccc(S(=O)(=O)Nc2cccc(Cl)c2)cc1` : reported log10 of IC50 = ?
2.23

Entry CC[C@]1(O)C[C@@H]2CN(CCc3c([nH]c4ccccc34)[C@@](C(=O)OC)(c3cc4c(cc3OC)N(C)[C@H]3[C@@](O)(C(=O)OC)[C@H](OC(C)=O)[C@]5(CC)C=CCN6CC[C@]43[C@@H]65)C2)C1 [VINBLASTINE] : reported log10 of IC50 = ?
2.78

Entry COc1cc2c(c(OC)c1OC)-c1ccc(OC)c(=O)cc1[C@@H](NC(C)=O)CC2 [COLCHICINE] : reported log10 of IC50 = ?
2.56

Entry `CCc1cccc(NS(=O)(=O)c2ccc(N3CCNC3=O)cc2)c1` : reported log10 of IC50 = ?
2.65

Entry `Cc1ccc(C)c(NS(=O)(=O)c2ccc(N3CCNC3=O)cc2)c1` : reported log10 of IC50 = ?
2.08

Entry `Cc1cccc(NS(=O)(=O)c2ccc(N3CCNC3=O)cc2)c1` : reported log10 of IC50 = ?
2.57

Entry `COc1cccc(NS(=O)(=O)c2ccc(N3CCNC3=O)cc2)c1` : reported log10 of IC50 = ?
2.85

Entry `O=C1NCCN1c1ccc(S(=O)(=O)Nc2ccc3[nH]ccc3c2)cc1` : reported log10 of IC50 = ?
3.68

Entry `Cc1cc(C)cc(NS(=O)(=O)c2ccc(N3CCNC3=O)cc2)c1` : reported log10 of IC50 = ?
2.60

###

Tested on: DU-145
Assay: Antiproliferative activity against human DU145 after 48 hrs by SRB assay
Format: functional, cell-based
Settings: DU-145, 48 h
Entries and their measured IC50 follow.
Output spec: scalar in nM, unitless text.

Cc1cc(C)cc(NS(=O)(=O)c2ccc(N3CCNC3=O)cc2)c1 = 430
O=C1NCCN1c1ccc(S(=O)(=O)Nc2cccc(Br)c2)cc1 = 340
COc1cc(NS(=O)(=O)c2ccc(N3CCNC3=O)cc2)cc(OC)c1OC = 51

Entry `COc1cccc(NS(=O)(=O)c2ccc(N3CCNC3=O)cc2)c1` : reported IC50 = ?
650

###

Assay: Antiproliferative activity against mouse B16F0 after 48 hrs by SRB assay
Mark fulfilled only for IC50 values smaller than 0.3 µM; exact matches and larger values are not fulfilled.

O=C1NCCN1c1ccc(S(=O)(=O)Nc2cccc(Cl)c2)cc1 = fulfilled
COc1cc(NS(=O)(=O)c2ccc(N3CCNC3=O)cc2)cc(OC)c1OC = fulfilled
O=C1NCCN1c1ccc(S(=O)(=O)Nc2cccc(Br)c2)cc1 = fulfilled
COc1cc(NS(=O)(=O)c2ccc(N3CCNC3=O)cc2)cc(OC)c1 = fulfilled

Determine whether this molecule shows IC50 lower than 0.3 µM (ties excluded): `COc1cccc(NS(=O)(=O)c2ccc(N3CCNC3=O)cc2)c1`
not fulfilled

Determine whether this molecule shows IC50 lower than 0.3 µM (ties excluded): `O=C1NCCN1c1ccc(S(=O)(=O)Nc2ccc3[nH]ccc3c2)cc1`
not fulfilled

###

Entries and their measured IC50 follow.
System: MCF7
Experiment: Antiproliferative activity against human MCF7 cells after 48 hrs by SRB assay
Type: functional, cell-based
Conditions: MCF7, 48 h
Output spec: scalar in nM, unitless text.

Answered cases to consult:
CCCCc1ccc(NS(=O)(=O)c2ccc(N3CCNC3=O)cc2)cc1 = 770
CCCCOc1ccc(NS(=O)(=O)c2ccc(N3CCNC3=O)cc2)cc1 = 870
O=C1NCCN1c1ccc(S(=O)(=O)Nc2cccc(Cl)c2)cc1 = 79
O=C1NCCN1c1ccc(S(=O)(=O)Nc2cccc(Br)c2)cc1 = 100
CCc1cccc(NS(=O)(=O)c2ccc(N3CCNC3=O)cc2)c1 = 130

Entry `O=C1NCCN1c1ccc(S(=O)(=O)Nc2ccc(OC(F)F)cc2)cc1` : reported IC50 = ?
760

Entry `O=C1NCCN1c1ccc(S(=O)(=O)Nc2ccc3c(c2)CCC3)cc1` : reported IC50 = ?
240

Entry `O=C1NCCN1c1ccc(S(=O)(=O)Nc2ccc3c(c2)Cc2ccccc2-3)cc1` : reported IC50 = ?
480

Entry `Cc1cccc(NS(=O)(=O)c2ccc(N3CCNC3=O)cc2)c1C` : reported IC50 = ?
230

###

System: MCF7
Assay: Antiproliferative activity against human MCF7 cells after 48 hrs by SRB assay
Type: functional, cell-based
Conditions: MCF7, 48 h
Entries and their measured pIC50 follow.
Give only the number. pIC50 is defined as minus log10 of concentration in molar units.

Answered cases to consult:
Cc1ccc(NS(=O)(=O)c2ccc(N3CCNC3=O)cc2)cc1 = 6.21
CCc1ccc(NS(=O)(=O)c2ccc(N3CCNC3=O)cc2)cc1 = 6.09
Cc1ccccc1NS(=O)(=O)c1ccc(N2CCNC2=O)cc1 = 6.55

Entry `Cc1cc(C)cc(NS(=O)(=O)c2ccc(N3CCNC3=O)cc2)c1` : reported pIC50 = ?
7.00

Entry `CCc1ccccc1NS(=O)(=O)c1ccc(N2CCNC2=O)cc1` : reported pIC50 = ?
6.46

###

Entries and their measured IC50 follow.
Assay: Antiproliferative activity against mouse P388D1 after 48 hrs by SRB assay
Settings: P388D1, 48 h
Output spec: scalar in nM, unitless text.

Answered cases to consult:
O=C1NCCN1c1ccc(S(=O)(=O)Nc2ccc3[nH]ccc3c2)cc1 = 520
CC[C@]1(O)C[C@@H]2CN(CCc3c([nH]c4ccccc34)[C@@](C(=O)OC)(c3cc4c(cc3OC)N(C)[C@H]3[C@@](O)(C(=O)OC)[C@H](OC(C)=O)[C@]5(CC)C=CCN6CC[C@]43[C@@H]65)C2)C1 = 1.8
Cc1ccc(C)c(NS(=O)(=O)c2ccc(N3CCNC3=O)cc2)c1 = 79

Entry `COc1cc2c(c(OC)c1OC)-c1ccc(OC)c(=O)cc1[C@@H](NC(C)=O)CC2` : reported IC50 = ?
28

Entry `O=C1NCCN1c1ccc(S(=O)(=O)Nc2cccc(Br)c2)cc1` : reported IC50 = ?
90

Entry `Cc1cc(C)cc(NS(=O)(=O)c2ccc(N3CCNC3=O)cc2)c1` : reported IC50 = ?
210

Entry `COc1cccc(NS(=O)(=O)c2ccc(N3CCNC3=O)cc2)c1` : reported IC50 = ?
250

Entry `Cc1cccc(NS(=O)(=O)c2ccc(N3CCNC3=O)cc2)c1` : reported IC50 = ?
250

FYI, the data here is from ChEMBL document CHEMBL1909507.
